# SUBJECT OF TEST: UniProt:Q9GZU1
# ASSAY NAME: Fluorescent TRPML1 assay (Fluo4-AM calcium fluorescence in doxycycline-induced HEK-293 Trex cells)
# Format: cell-based
# CONDITIONS: fluorescent calcium assay
PARAMETER MEASURED: EC50

# COMPOUND, SUBJECT OF TEST, PARAMETER MEASURED, OBSERVED
data = [
    ("C[C@@H]1CN(c2ncnc3c2c(N2CCCCC2)cn3-c2cccc(Cl)c2)CCN1C(=O)OC(C)(C)C [Compound 287]", "UniProt:Q9GZU1", "EC50", "< 100 nM"),
]

Can you look up the measured EC50 of C[C@H]1CN(C(=O)OC(C)(C)C)CCN1c1ncnc2c1c(N1CCOCC1)cn2-c1cc(F)cc(F)c1 [Compound 228] for me? 100 to 500 nM

Can you look up the measured EC50 of CC[C@H]1CN(c2ncnc3c2c(C2CC2)cn3-c2cc(F)cc(F)c2)CCN1C(=O)OC(C)(C)C [Compound 257] for me? 100 to 500 nM

Can you look up the measured EC50 of Cc1nccnc1-c1cn(-c2cc(C#N)ccn2)c2ncnc(N3C[C@@H](C)N(C(=O)OC(C)(C)C)C[C@@H]3C)c12 [Compound 458] for me? < 100 nM

* * *

# SUBJECT OF TEST: TRPML1 (Homo sapiens)
# Sequence (Q9GZU1 whole entry L15A/L16A/L577A/L578A, form open): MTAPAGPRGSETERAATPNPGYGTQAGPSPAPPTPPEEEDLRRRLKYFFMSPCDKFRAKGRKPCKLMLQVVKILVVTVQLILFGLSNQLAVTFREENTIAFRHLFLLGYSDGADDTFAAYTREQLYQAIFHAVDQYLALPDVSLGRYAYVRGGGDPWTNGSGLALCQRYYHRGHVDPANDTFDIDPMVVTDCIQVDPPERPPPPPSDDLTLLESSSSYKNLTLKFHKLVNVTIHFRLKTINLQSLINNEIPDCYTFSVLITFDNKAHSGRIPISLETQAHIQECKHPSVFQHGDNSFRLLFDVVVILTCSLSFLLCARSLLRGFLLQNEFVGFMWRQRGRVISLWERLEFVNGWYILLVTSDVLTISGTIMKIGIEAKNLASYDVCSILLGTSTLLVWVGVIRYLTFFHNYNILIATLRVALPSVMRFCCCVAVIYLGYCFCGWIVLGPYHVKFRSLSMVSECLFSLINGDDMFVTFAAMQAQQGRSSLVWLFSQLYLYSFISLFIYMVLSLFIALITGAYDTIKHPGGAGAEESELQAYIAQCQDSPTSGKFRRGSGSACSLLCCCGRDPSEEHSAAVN
# ASSAY NAME: Fluorescent TRPML1 assay (Fluo4-AM calcium fluorescence in doxycycline-induced HEK-293 Trex cells)
# Assay type: cell-based
# CONDITIONS: fluorescent calcium assay
# Description: HEK-293 Trex cells were stably transfected with a construct consisting of the human coding sequence for TRPML1 cloned into the […] plasmid pCDNA5 T/O. Mutations were introduced into the TRPML1 sequence to facilitate expression on the cell surface (Silvia Vergarajauregui, Rosa Puertollano, Traffic. 2006 March; 7(3): 337-353). […] The Trypsin-EDTA is diluted with growth media, and cells are counted. […] EC50 values were calculated using a non-linear regression of Prism. […]
PARAMETER MEASURED: EC50

# COMPOUND, EC50
rows = [
    ("C[C@@H]1CN(c2ncnc3c2c(C2CC2)cn3-c2cc(C#N)ccn2)[C@@H](C)CN1C(=O)OC(C)(C)C", "< 100 nM"),
    ("C[C@@H]1CN(c2ncnc3c2c(C2CC2)cn3-c2cc(C#N)ccn2)CCN1C(=O)OC(C)(C)C", "< 100 nM"),
    ("CCOC(=O)N1CCN(c2ncnc3c2c(C2CC2)cn3-c2ccc(Cl)cc2)[C@@H](C)C1", "100 to 500 nM"),
    ("C[C@H]1CN(C(=O)OC(C)(C)C)CCN1c1ncnc2c1c(N1CCCC1)cn2-c1cccc(OC(F)(F)F)c1", "< 100 nM"),
    ("CCOC(=O)N1C[C@H](C)N(c2ncnc3c2c(-c2ccccc2F)cn3-c2cc(C)ccn2)C[C@H]1C", "< 100 nM"),
]

Can you look up the measured EC50 of `C[C@@H]1CN(c2ncnc3c2c(-c2ccccc2F)cn3-c2ccccn2)CCN1C(=O)OC(C)(C)C` for me? < 100 nM

Can you look up the measured EC50 of `C[C@@H]1CN(c2ncnc3c2c(C2CC2)cn3-c2cc(Cl)cc(Cl)c2)CCN1C(=O)OC(C)(C)C` for me? < 100 nM

Can you look up the measured EC50 of CC(C)(C)OC(=O)N1CCN(c2ncnc3c2c(C2CC2)cn3-c2cc(C#N)ccn2)[C@H]2C[C@H]21 (single isomer, unassigned) for me? < 100 nM
